- target.of.assay: T1, human CD48 (on primary human peripheral blood mononuclear cells) (human, UniProt P09326 27-220)
- T1 sequence: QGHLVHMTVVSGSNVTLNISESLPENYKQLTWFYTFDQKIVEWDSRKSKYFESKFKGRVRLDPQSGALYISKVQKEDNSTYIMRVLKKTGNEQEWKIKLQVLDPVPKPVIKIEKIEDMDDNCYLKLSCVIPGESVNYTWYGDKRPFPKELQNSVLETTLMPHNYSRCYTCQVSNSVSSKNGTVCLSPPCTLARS
- assay: cell-based or functional assay
endpoint.name: Inhibition of IFN-gamma Release IC50; Donor 9 (Molar)
Note: unit Molar is implicit; provide only the numeric part.

H4H1707N (antibody, V domains shown, Human IgG4 Fc (H4H) form of 1707N) VH: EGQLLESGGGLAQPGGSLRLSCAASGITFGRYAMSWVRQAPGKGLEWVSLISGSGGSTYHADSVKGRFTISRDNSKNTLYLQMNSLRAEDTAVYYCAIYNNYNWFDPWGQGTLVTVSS VL: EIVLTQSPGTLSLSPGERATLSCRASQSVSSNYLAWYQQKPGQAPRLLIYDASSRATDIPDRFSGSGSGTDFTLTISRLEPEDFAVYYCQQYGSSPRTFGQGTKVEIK : 5.1e-11

// query Inhibition of IFN-gamma Release IC50; Donor 9 value for entry H4H1775P (antibody, human IgG4, V domains shown, Human IgG4 Fc (H4H)) VH: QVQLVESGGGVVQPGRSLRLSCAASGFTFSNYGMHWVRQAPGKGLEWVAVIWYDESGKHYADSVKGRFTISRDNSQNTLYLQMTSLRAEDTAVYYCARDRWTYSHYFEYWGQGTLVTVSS VL: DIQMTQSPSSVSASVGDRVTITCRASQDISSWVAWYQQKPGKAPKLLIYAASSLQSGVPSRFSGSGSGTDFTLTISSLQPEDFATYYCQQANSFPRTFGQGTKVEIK
2.3e-12

Tell me the measured Inhibition of IFN-gamma Release IC50; Donor 9 of H4H1769Pa (antibody, human IgG4, V domains shown) VH: QVQLVQSGAEVKKPGASVKVSCKTSGYTFAGYGITWVRQAPGRGLEWMGWVSAYNGDTDYAQSLQGRVTMTTDTSTSTAYMELRSLRSDDTAMYYCARDRYSSSSGYFDYWGQGTLVTVSS VL: DIQMTQSPSSVSASVGDRVTITCRASQGISSWLAWHQQKPGKAPKVLIYAASSLHSGVPSRFSGSGSGTEFTLTISSLQPEDFATYYCQQANTFPYTFGQGTKLEIK , please.
5.7e-12
